System: ASPC-1 tumor-bearing mice
Experiment: Biodistribution of radionuclide labeled complexes in ASPC-1 tumor-bearing mice
Assay type: in vivo, BALB/c nude mice
Details: Femur, 4 h
Procedure: The BALB/c nude mice (Charles River, Beijing) were utilized to establish the xenografted model for biodistribution study. […] At different time points after the administration, the mice treated with each compound were euthanized. The tissues and organs of the animals in each group were collected, excised, weighed, and analyzed in a PerkinElmer 2480 WIZARD2γ counter, and the percent injected dose (% ID) and % ID/g of each organ or tissue were calculated.
# binarize % ID/g (4 h) Femur: threshold 0.9 % ID/g inclusive, high side fulfilled, low side not fulfilled

**Query** Decide: is the reported value of % ID/g (4 h) Femur for COc1cccc(OC)c1-c1cc(C(=O)NC2(C(=O)O)C3CC4CC(C3)CC2C4)nn1-c1ccc(NC(=O)CCCN(C)CCCN(C)C(=O)CN2CCN(CC(=O)[O-])CCN(CC(=O)[O-])CCN(CC(=O)[O-])CC2)cc1C(C)C.[177Lu+3] (centres unmarked) [^177Lu-I-5] equal to or greater than 0.9 % ID/g?
**Result** fulfilled

**Query** Decide: is the reported value of % ID/g (4 h) Femur for COc1cccc(OC)c1-c1cc(C(=O)NC2(C(=O)O)C3CC4CC(C3)CC2C4)nn1-c1ccc(NCCCN(C)CCCNC(=O)CN2CCN(CC(=O)[O-])CCN(CC(=O)[O-])CCN(CC(=O)[O-])CC2)cc1C(C)C.[177Lu+3] (centres unmarked) [^177Lu-I-2] equal to or greater than 0.9 % ID/g?
**Result** fulfilled

**Query** Decide: is the reported value of % ID/g (4 h) Femur for COc1cccc(OC)c1-c1cc(C(=O)NC2(C(=O)O)C3CC4CC(C3)CC2C4)nn1-c1ccc(C(=O)N(CCCNC(=O)CN2CCN(CC(=O)[O-])CCN(CC(=O)[O-])CCN(CC(=O)[O-])CC2)CCCN(C)C)cc1C(C)C.[177Lu+3] (centres unmarked) [^177Lu-C-5, reference compound] equal to or greater than 0.9 % ID/g?
**Result** not fulfilled

**Query** Decide: is the reported value of % ID/g (4 h) Femur for COc1cccc(OC)c1-c1cc(C(=O)NC2(C(=O)O)C3CC4CC(C3)CC2C4)nn1-c1ccc(NCCOCCOCCNC(=O)CN2CCN(CC(=O)[O-])CCN(CC(=O)[O-])CCN(CC(=O)[O-])CC2)cc1C(C)C.[177Lu+3] (centres unmarked) [^177Lu-I-10] equal to or greater than 0.9 % ID/g?
**Result** not fulfilled

---

Tested on: ASPC-1 tumor-bearing mice
Experiment: Biodistribution of radionuclide labeled complexes in ASPC-1 tumor-bearing mice
Type: in vivo, BALB/c nude mice
Conditions: Kidney, 4 h
readout.type: % ID/g (4 h) Kidney

**Query** Identify measured % ID/g (4 h) Kidney associated with COc1cccc(OC)c1-c1cc(C(=O)NC2(C(=O)O)C3CC4CC(C3)CC2C4)nn1-c1ccc(OCCCN(C)CCCN(C)C(=O)CN2CCN(CC(=O)[O-])CCN(CC(=O)[O-])CCN(CC(=O)[O-])CC2)cc1C(C)C.[177Lu+3] (centres unmarked) [^177Lu-I-7]
**Result** 2.05 ± 0.48 % ID/g

**Query** Identify measured % ID/g (4 h) Kidney associated with COc1cccc(OC)c1-c1cc(C(=O)NC2(C(=O)O)C3CC4CC(C3)CC2C4)nn1-c1ccc(N(CCCN(C)C)C(=O)COCCOCCNC(=O)CN2CCN(CC(=O)[O-])CCN(CC(=O)[O-])CCN(CC(=O)[O-])CC2)cc1C(C)C.[177Lu+3] (centres unmarked) [^177Lu-I-6]
**Result** 2.39 ± 0.37 % ID/g

**Query** Identify measured % ID/g (4 h) Kidney associated with COc1cccc(OC)c1-c1cc(C(=O)NC2(C(=O)O)C3CC4CC(C3)CC2C4)nn1-c1ccc(C(=O)N(CCCNC(=O)CN2CCN(CC(=O)[O-])CCN(CC(=O)[O-])CCN(CC(=O)[O-])CC2)CCCN(C)C)cc1C(C)C.[177Lu+3] (centres unmarked) [^177Lu-C-5, reference compound]
**Result** 0.33 ± 0.09 % ID/g

**Query** Identify measured % ID/g (4 h) Kidney associated with COc1cccc(OC)c1-c1cc(C(=O)NC2(C(=O)O)C3CC4CC(C3)CC2C4)nn1-c1ccc(NCCCN(C)CCCNC(=O)CN2CCN(CC(=O)[O-])CCN(CC(=O)[O-])CCN(CC(=O)[O-])CC2)cc1C(C)C.[177Lu+3] (centres unmarked) [^177Lu-I-2]
**Result** 2.03 ± 0.38 % ID/g

**Query** Identify measured % ID/g (4 h) Kidney associated with COc1cccc(OC)c1-c1cc(C(=O)NC2(C(=O)O)C3CC4CC(C3)CC2C4)nn1-c1ccc(SCCCN(C)CCCN(C)C(=O)CN2CCN(CC(=O)[O-])CCN(CC(=O)[O-])CCN(CC(=O)[O-])CC2)cc1C(C)C.[177Lu+3] (centres unmarked) [^177Lu-I-8]
**Result** 3.09 ± 1.79 % ID/g
